- target: P2X purinoceptor 7 (Homo sapiens, UniProt Q99572)
- Sequence (Q99572 whole entry): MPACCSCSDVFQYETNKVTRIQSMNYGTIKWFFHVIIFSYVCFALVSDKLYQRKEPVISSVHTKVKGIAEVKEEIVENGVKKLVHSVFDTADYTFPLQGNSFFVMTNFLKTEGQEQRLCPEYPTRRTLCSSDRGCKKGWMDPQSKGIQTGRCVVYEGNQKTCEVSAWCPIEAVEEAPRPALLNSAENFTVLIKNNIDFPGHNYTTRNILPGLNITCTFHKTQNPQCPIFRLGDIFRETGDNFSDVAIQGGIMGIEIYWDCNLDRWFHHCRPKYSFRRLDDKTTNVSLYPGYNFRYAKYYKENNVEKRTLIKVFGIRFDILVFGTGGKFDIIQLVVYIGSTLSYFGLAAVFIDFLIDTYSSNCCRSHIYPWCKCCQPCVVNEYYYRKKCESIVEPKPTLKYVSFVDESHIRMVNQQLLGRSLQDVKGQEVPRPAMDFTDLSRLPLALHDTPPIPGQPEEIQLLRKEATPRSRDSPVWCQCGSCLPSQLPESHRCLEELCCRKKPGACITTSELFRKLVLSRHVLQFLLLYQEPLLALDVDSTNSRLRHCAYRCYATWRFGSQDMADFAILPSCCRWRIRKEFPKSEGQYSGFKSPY
- run.description: Antagonist activity at human P2X7 receptor expressed in HEK293 cells assessed as inhibition of BzATP-induced ethidium bromide uptake after 2 hrs by fluorescence assay
# Lookup of reported log10 of IC50 keyed by entry
quantity.measured: log10 of IC50 (log10 of the value in nM)

INSERT INTO assay_data (molecule_smiles, measured_result) VALUES
  ('CN([C@@H](Cc1ccc(OS(=O)(=O)c2cccc3cnccc23)cc1)C(=O)N1CCN(c2ccccc2)CC1)S(=O)(=O)c1cccc2cnccc12', 1.98),
  ('O=C(NNc1ccccc1C(F)(F)F)C12C3CCC4C3C3C(CCC31)C42', 2.56),
  ('CC12CC3CC1(C)CC3(C(=O)NNc1ccccc1Cl)C2', 1.26),
  ('O=C(NNc1ccccc1C(F)(F)F)C12C3C=CC4C3C3C(C=CC31)C42', 2.12),
  ('O=C(NNc1ccc(C(F)(F)F)cc1Cl)C12C3C=CC4C3C3C(C=CC31)C42', 3.19),
  ('O=C(NNc1ccccc1Cl)C12C3CCC4C3C3C(CCC31)C42', 2.97),
  ('O=C(NNc1ccccc1Cl)C12C3C=CC4C3C3C(C=CC31)C42', 1.98);
